- Tested On: FGFR1 (h) (Homo sapiens, UniProt P11362)
- Measurement Protocol: FGFR1 (enzymatic assay), TR-FRET
- Assay type: biochemical
- Test Conditions: read-out: FGFR 1 pIC50 (converted)
// IC50 lookup, one value per entry
Experimental Readout: IC50 (nM)

COc1cc(OC)cc(N(CCCO)c2ccc3ncc(-c4ccc(N5CCNCC5)nc4)nc3c2)c1 [Compound 48] | 2.45
COCC(CN(c1cc(OC)cc(OC)c1)c1ccc2ncc(-c3cccnc3)nc2c1)OC(C)=O (single isomer, unassigned) [Compound 76] | 11.7
CNC(=O)c1cc(-c2cnc3ccc(N(CCCNCC(F)(F)F)c4cc(OC)cc(OC)c4)cc3n2)ccn1 [Compound 122] | 83.2
COc1cc(OC)cc(N(CCCNCC(=O)O)c2ccc3ncc(-c4ccnc(C(=O)NCCCCN)c4)nc3c2)c1 [Compound 44] | 17.4
COc1cc(OC)cc(N(CCCO)c2ccc3ncc(-c4cccnc4F)nc3c2)c1 [Compound 149] | 60.3
COc1cc(OC)cc(N(CCCO)c2ccc3ncc(-c4ccnc(-c5ccnc(Cl)c5)c4)nc3c2)c1 [Compound 133] | 110
COc1cc(OC)cc(N(CCO)c2ccc3ncc(-c4ccnc(C(=O)NCCCN)c4)nc3c2)c1 [Compound 123] | 18.6
COc1cc(OC)cc(N(CCNC(C)C)c2ccc3ncc(-c4ccnc(C(=O)NCCCN)c4)nc3c2)c1 [Compound 146] | 2
COc1cc(OC)cc(N(CC2CC2)c2ccc3ncc(-n4ccc(C)n4)nc3c2)c1 [Compound 31] | 933
COc1cc(OC)cc(N(CC2CC2)c2ccc3ncc(N4CCN(C)CC4)nc3c2)c1 [Compound 64] | 437
COc1cc(OC)cc(N(CC2CC2)c2ccc3ncc(-c4ocnc4C)nc3c2)c1 [Compound 104] | 389
COc1cc(OC)cc(N(CCNC(C)C)c2ccc3ncc(-c4ccnn4C4CCCCO4)nc3c2)c1 (centres unmarked) [Compound 188] | 10

###

- Tested On: Ba/F3-FGFR4-transfected cells (Homo sapiens, UniProt P22455)
- Sequence (P22455 whole entry, change not shown): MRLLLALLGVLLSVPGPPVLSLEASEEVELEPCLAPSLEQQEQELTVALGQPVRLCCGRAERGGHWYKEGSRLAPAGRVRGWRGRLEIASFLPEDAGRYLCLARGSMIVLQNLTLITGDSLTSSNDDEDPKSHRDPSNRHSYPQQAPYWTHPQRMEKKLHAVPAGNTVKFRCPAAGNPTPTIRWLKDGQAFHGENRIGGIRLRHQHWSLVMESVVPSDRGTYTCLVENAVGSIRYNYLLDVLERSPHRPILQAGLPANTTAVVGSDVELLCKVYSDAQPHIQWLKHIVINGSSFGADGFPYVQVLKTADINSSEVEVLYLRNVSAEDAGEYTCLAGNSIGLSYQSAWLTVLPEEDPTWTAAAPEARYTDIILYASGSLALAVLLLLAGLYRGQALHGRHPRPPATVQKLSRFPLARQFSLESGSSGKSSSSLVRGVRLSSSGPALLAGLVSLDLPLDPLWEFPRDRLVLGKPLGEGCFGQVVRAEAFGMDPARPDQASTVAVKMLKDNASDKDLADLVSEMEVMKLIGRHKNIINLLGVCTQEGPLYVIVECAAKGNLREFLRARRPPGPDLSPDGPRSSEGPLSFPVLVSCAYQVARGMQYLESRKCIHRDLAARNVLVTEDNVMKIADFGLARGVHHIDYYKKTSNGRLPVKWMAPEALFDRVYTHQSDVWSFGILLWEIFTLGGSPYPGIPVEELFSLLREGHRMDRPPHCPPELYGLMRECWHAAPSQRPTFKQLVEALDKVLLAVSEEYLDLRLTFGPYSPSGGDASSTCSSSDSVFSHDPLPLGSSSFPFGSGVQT
- Measurement Protocol: Ba/F3-FGFR4 cellular proliferation assay, Alamar Blue
- Type: cell-based
// BAF3-FGFR4 pIC50 lookup, one value per entry
Experimental Readout: BAF3-FGFR4 pIC50

COc1cc(OC)cc(N(CCNC(C)C)c2ccc3ncc(C(=O)NCCCN4CCN(C)CC4)nc3c2)c1 | ~5.5
COc1cc(OC)cc(N(CCCNCC(F)(F)F)c2ccc3ncc(-c4cnc(OC)nc4)nc3c2)c1 | ~5.1
COc1cc(OC)cc(N(CCNC(C)C)c2ccc3ncc(-c4ccc(N)nc4)nc3c2)c1 | ~7.11

###

- Tested On: Ba/F3-FGFR1-transfected cells (Homo sapiens)
- Sequence (P11362 whole entry, change not shown): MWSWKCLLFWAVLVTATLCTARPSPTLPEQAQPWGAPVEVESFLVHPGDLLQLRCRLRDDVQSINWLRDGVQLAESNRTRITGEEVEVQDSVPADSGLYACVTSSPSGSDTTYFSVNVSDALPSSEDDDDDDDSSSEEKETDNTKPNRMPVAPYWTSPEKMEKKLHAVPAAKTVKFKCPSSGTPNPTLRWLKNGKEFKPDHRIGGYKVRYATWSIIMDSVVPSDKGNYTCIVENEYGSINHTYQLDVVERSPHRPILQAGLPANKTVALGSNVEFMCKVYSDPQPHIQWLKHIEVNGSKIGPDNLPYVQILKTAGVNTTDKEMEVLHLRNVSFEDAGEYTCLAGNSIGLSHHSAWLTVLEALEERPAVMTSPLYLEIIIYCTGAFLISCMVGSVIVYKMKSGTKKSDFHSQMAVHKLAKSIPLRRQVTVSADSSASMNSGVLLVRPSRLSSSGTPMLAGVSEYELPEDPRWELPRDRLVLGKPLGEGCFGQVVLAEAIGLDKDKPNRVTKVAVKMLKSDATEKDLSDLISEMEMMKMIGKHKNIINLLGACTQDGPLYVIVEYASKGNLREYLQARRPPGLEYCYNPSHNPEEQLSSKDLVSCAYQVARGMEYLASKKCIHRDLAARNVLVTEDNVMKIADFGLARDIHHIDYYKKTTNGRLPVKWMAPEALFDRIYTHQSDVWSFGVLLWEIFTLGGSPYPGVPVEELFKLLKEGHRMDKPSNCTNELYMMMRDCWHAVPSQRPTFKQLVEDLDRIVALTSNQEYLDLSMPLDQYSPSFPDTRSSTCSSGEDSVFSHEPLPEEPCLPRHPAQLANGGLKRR
- Measurement Protocol: Ba/F3-FGFR1 (minus IL3) cellular proliferation assay, Alamar Blue
- Assay type: cell-based
- Test Conditions: minus IL3, 384 well
I'd appreciate it if you marked entries yes (1) when BAF3-FGFR 1 (MIN IL3) 384 well pIC50 is lower than 6 and no (0) when it is not.

COc1cc(OC)cc(N(CCCO)c2ccc3ncc(-c4ccnc(F)c4)nc3c2)c1 [Compound 142] | yes (1)
COCC(CN(c1cc(OC)cc(OC)c1)c1ccc2ncc(-c3cccnc3)nc2c1)OC(C)=O (single isomer, unassigned) [Compound 76] | no (0)
CNc1ccc(-c2cnc3ccc(N(CCCNCC(F)(F)F)c4cc(OC)cc(OC)c4)cc3n2)cn1 [Compound 129] | yes (1)
COc1cc(OC)cc(N(CC2CO2)c2ccc3ncc(-c4ccc(N)nc4)nc3c2)c1 (stereo not drawn) [Compound 110] | no (0)
COc1cc(OC)cc(N(CCCNCC(F)(F)F)c2ccc3ncc(C(=O)NCCN4CCOCC4)nc3c2)c1 [Compound 158] | yes (1)
